# target.desc: DNA gyrase (Escherichia coli, UniProt P0AES4+P0AES6)
# Construct: purchased Inspiralis, UK
# procedure.summary: DNA gyrase supercoiling assay (E. coli)
# Type: biochemical
# test.settings: single concentration (200, 100 or 50 μM), in duplicate, versus the positive control (vehicle)
Counter-ions that a name gives are not always drawn.

[
  {
    "compound": "COc1ccc2c(NCCCN3CCN(c4nccc5ccccc45)CC3)cc(=O)oc2c1 [Compound 85, hydrochloride]",
    "% inhibition DNA gyrase [%]": 78
  },
  {
    "compound": "C[N+]1(CCCc2nccc3ccccc23)CCC(Nc2cc(=O)oc3ccccc23)CC1 (stereo not shown)",
    "% inhibition DNA gyrase [%]": 52
  },
  {
    "compound": "O=c1oc2ccccc2cc1NCCCN1CCN(c2nccc3ccccc23)CC1 [Compound 87, hydrochloride]",
    "% inhibition DNA gyrase [%]": 79
  },
  {
    "compound": "O=C(O)CC(NC[C@H](O)CN1CCN(c2nccc3ccc(F)cc23)CC1)C1CCCCC1 (stereo partly shown)",
    "% inhibition DNA gyrase [%]": 57
  }
]

---

# target.desc: DNA gyrase (Staphylococcus aureus, UniProt P0A0K8+P20831)
# Construct: purchased Inspiralis, UK
# Sequence (P20831 whole entry): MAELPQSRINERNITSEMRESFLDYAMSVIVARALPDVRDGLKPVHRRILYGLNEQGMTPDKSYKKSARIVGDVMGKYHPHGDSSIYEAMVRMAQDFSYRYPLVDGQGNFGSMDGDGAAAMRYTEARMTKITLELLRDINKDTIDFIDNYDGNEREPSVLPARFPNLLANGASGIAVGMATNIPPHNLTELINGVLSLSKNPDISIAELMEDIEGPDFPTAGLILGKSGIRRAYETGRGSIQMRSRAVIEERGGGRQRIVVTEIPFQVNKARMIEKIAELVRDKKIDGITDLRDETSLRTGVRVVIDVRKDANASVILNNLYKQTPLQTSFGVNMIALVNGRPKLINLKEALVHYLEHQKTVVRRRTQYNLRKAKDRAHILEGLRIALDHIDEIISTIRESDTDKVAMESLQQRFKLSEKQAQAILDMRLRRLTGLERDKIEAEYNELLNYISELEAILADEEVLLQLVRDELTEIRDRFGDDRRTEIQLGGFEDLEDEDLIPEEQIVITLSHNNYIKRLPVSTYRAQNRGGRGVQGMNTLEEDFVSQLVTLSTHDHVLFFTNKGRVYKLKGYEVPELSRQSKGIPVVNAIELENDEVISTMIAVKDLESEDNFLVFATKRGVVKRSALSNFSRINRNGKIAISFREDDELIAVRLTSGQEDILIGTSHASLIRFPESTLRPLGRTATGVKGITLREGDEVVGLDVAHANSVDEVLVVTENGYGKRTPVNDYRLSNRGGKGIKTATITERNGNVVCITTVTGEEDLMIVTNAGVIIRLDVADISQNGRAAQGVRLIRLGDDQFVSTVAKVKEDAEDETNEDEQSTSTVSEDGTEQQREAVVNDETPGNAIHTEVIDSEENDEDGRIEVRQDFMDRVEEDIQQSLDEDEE
# Sequence (P0A0K8 whole entry): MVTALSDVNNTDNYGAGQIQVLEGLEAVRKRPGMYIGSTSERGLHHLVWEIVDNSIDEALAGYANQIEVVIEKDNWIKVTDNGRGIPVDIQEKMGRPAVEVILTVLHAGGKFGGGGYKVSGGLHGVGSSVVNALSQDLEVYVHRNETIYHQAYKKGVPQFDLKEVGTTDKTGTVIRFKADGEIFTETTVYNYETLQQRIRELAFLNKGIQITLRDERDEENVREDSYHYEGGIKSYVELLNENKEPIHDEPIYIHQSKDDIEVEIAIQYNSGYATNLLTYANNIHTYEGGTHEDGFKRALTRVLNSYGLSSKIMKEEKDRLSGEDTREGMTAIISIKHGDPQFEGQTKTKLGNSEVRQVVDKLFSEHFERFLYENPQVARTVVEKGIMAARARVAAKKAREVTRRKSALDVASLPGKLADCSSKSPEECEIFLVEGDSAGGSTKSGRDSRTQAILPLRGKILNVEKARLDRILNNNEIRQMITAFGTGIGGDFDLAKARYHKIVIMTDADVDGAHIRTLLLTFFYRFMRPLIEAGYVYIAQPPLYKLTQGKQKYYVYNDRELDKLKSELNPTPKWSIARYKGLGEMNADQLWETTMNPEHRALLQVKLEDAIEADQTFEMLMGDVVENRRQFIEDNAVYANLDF
# procedure.summary: DNA gyrase supercoiling assay (S. aureus)
# Assay type: biochemical
# test.settings: single concentration (200, 100 or 50 μM), in duplicate, versus the positive control (vehicle)
Where a name gives a salt, the structure may show the parent alone.
Reported % inhibition DNA gyrase values for the following molecules.

[
  {
    "molecule": "Cc1cc2ccccc2c(N2CCN(CCCNC(=O)c3cccnc3)CC2)n1 [Compound 21, hydrochloride]",
    "target.desc": "DNA gyrase (Staphylococcus aureus, UniProt P0A0K8+P20831)",
    "% inhibition DNA gyrase (%)": 67
  },
  {
    "molecule": "COc1ccc2c(NCCCN3CCN(c4nccc5ccccc45)CC3)cc(=O)oc2c1 [Compound 85, hydrochloride]",
    "target.desc": "DNA gyrase (Staphylococcus aureus, UniProt P0A0K8+P20831)",
    "% inhibition DNA gyrase (%)": 86
  },
  {
    "molecule": "O=C(NCCCN1CCN(c2nccc3cc(F)ccc23)CC1)c1cccnc1 [Compound 45, hydrochloride]",
    "target.desc": "DNA gyrase (Staphylococcus aureus, UniProt P0A0K8+P20831)",
    "% inhibition DNA gyrase (%)": 81
  },
  {
    "molecule": "Cc1ccc2c(N3CCN(CCCNC(=O)c4cccnc4)CC3)nccc2c1",
    "target.desc": "DNA gyrase (Staphylococcus aureus, UniProt P0A0K8+P20831)",
    "% inhibition DNA gyrase (%)": 78
  },
  {
    "molecule": "O=C(O)[C@@H](NC[C@@H](O)CN1CCN(c2nccc3ccc(F)cc23)CC1)C1CCCCC1",
    "target.desc": "DNA gyrase (Staphylococcus aureus, UniProt P0A0K8+P20831)",
    "% inhibition DNA gyrase (%)": 92
  },
  {
    "molecule": "COC(=O)CC(NCCNC1CCN(c2nccc3ccc(F)cc23)CC1)C1CCCCC1 (stereo not shown)",
    "target.desc": "DNA gyrase (Staphylococcus aureus, UniProt P0A0K8+P20831)",
    "% inhibition DNA gyrase (%)": 84
  },
  {
    "molecule": "O=C(O)CC(NCCNC1CCN(c2nccc3ccc(F)cc23)CC1)C1CCCCC1 (stereo not shown)",
    "target.desc": "DNA gyrase (Staphylococcus aureus, UniProt P0A0K8+P20831)",
    "% inhibition DNA gyrase (%)": 73
  },
  {
    "molecule": "O=c1oc2ccccc2cc1NCCCN1CCN(c2nccc3ccccc23)CC1 [Compound 87, hydrochloride]",
    "target.desc": "DNA gyrase (Staphylococcus aureus, UniProt P0A0K8+P20831)",
    "% inhibition DNA gyrase (%)": 96
  },
  {
    "molecule": "O=C(NCCN1CCN(c2nccc3ccccc23)CC1)c1ccccc1 [Compound 4, hydrochloride]",
    "target.desc": "DNA gyrase (Staphylococcus aureus, UniProt P0A0K8+P20831)",
    "% inhibition DNA gyrase (%)": 84
  },
  {
    "molecule": "O=C(NCCN1CCN(c2nccc3ccccc23)CC1)c1cc(=O)oc2ccccc12 [Compound 75, hydrochloride]",
    "target.desc": "DNA gyrase (Staphylococcus aureus, UniProt P0A0K8+P20831)",
    "% inhibition DNA gyrase (%)": 61
  },
  {
    "molecule": "OCCC(NCCNC1CCN(c2nccc3ccc(F)cc23)CC1)C1CCCCC1 (stereo not shown)",
    "target.desc": "DNA gyrase (Staphylococcus aureus, UniProt P0A0K8+P20831)",
    "% inhibition DNA gyrase (%)": 70
  },
  {
    "molecule": "c1ccc2c(N3CCN(CCNCc4ccc5c(c4)OCO5)CC3)nccc2c1",
    "target.desc": "DNA gyrase (Staphylococcus aureus, UniProt P0A0K8+P20831)",
    "% inhibition DNA gyrase (%)": 74
  },
  {
    "molecule": "O=C(NCCCN1CCN(c2nccc3ccccc23)CC1)c1cnc2ccoc2c1 [Compound 31, hydrochloride]",
    "target.desc": "DNA gyrase (Staphylococcus aureus, UniProt P0A0K8+P20831)",
    "% inhibition DNA gyrase (%)": 65
  },
  {
    "molecule": "O=C(NCCCN1CCN(c2nccc3ncccc23)CC1)c1cccnc1 [Compound 43, hydrochloride]",
    "target.desc": "DNA gyrase (Staphylococcus aureus, UniProt P0A0K8+P20831)",
    "% inhibition DNA gyrase (%)": 100
  }
]

---

# target.desc: DNA gyrase (Escherichia coli, UniProt P0AES4+P0AES6)
# Construct: purchased Inspiralis, UK
# procedure.summary: DNA gyrase supercoiling assay (E. coli)
# Type: biochemical
# test.settings: single concentration (200, 100 or 50 μM), in duplicate, versus the positive control (vehicle)
Structures can show the parent of a compound that is named as a salt.
observable: % inhibition DNA gyrase (%)

[
  {
    "compound": "O=c1cc(NCCCN2CCN(c3nccc4ccccc34)CC2CC(F)(F)F)c2ccccc2o1 (stereo not drawn) [Compound 83, hydrochloride]",
    "unit.descriptor": "%",
    "value.measured": 69
  },
  {
    "compound": "O=C(NCCN1CCN(c2nccc3ccccc23)CC1)c1cc(=O)oc2ccccc12 [Compound 75, hydrochloride]",
    "unit.descriptor": "%",
    "value.measured": 69
  }
]

---

Reported % inhibition DNA gyrase values for the following compounds.
# target.desc: DNA gyrase (Escherichia coli, UniProt P0AES4+P0AES6)
# Construct: purchased Inspiralis, UK
# procedure.summary: DNA gyrase supercoiling assay (E. coli)
# Assay type: biochemical
# test.settings: single concentration (200, 100 or 50 μM), in duplicate, versus the positive control (vehicle)
Structures can show the parent of a compound that is named as a salt.

[
  {
    "compound": "O=C(O)[C@@H](NC[C@@H](O)CN1CCN(c2nccc3ccc(F)cc23)CC1)C1CCCCC1 [Compound 140]",
    "unit.descriptor": "%",
    "% inhibition DNA gyrase": 68
  },
  {
    "compound": "Cc1c(NCCCN2CCN(c3nccc4ccc(F)cc34)CC2)c2ccccc2oc1=O [Compound 97, hydrochloride]",
    "unit.descriptor": "%",
    "% inhibition DNA gyrase": 85
  }
]

---

# target.desc: DNA gyrase (Staphylococcus aureus, UniProt P0A0K8+P20831)
# Construct: purchased Inspiralis, UK
# procedure.summary: DNA gyrase supercoiling assay (S. aureus)
# Format: biochemical
# test.settings: single concentration (200, 100 or 50 μM), in duplicate, versus the positive control (vehicle)
Counter-ions that a name gives are not always drawn.
observable: % inhibition DNA gyrase

[
  {
    "compound": "O=C(CC(NCCNC1CCN(c2nccc3ccc(F)cc23)CC1)C1CCCCC1)NO (centres unmarked)",
    "observable": "% inhibition DNA gyrase",
    "value.measured": "81%"
  },
  {
    "compound": "O=C(CN1CCC(Nc2cc(=O)oc3ccccc23)CC1)NCc1nccc2ccccc12",
    "observable": "% inhibition DNA gyrase",
    "value.measured": "n/a (n/a = not active)"
  },
  {
    "compound": "O=c1cc(NCCCN2CCN(c3nccc4ccccc34)CC2)c2ccccc2[nH]1 [Compound 58, hydrochloride]",
    "observable": "% inhibition DNA gyrase",
    "value.measured": "n/a (n/a = not active)"
  },
  {
    "compound": "O=C1CN(c2nccc3ccccc23)CCN1CCCNc1cc(=O)oc2ccccc12 [Compound 71, hydrochloride]",
    "observable": "% inhibition DNA gyrase",
    "value.measured": "n/a (n/a = not active)"
  },
  {
    "compound": "O=c1cc(NCCCN2CCN(c3cccc4ccccc34)CC2)c2ccccc2o1 [Compound 50, hydrochloride]",
    "observable": "% inhibition DNA gyrase",
    "value.measured": "n/a (n/a = not active)"
  },
  {
    "compound": "O=c1cc(NCCCN2CCN(c3nccc4ccccc34)CC2CC(F)(F)F)c2ccccc2o1 (centres unmarked) [Compound 83, hydrochloride]",
    "observable": "% inhibition DNA gyrase",
    "value.measured": "n/a (n/a = not active)"
  },
  {
    "compound": "COC(=O)C1CN(c2nccc3ccccc23)CCN1CCCNc1cc(=O)oc2ccccc12 (centres unmarked) [Compound 81, hydrochloride]",
    "observable": "% inhibition DNA gyrase",
    "value.measured": "n/a (n/a = not active)"
  },
  {
    "compound": "O=c1cc(N2CCN(CCCNc3cc(=O)oc4ccccc34)CC2)c2ccccc2[nH]1 [Compound 68, hydrochloride]",
    "observable": "% inhibition DNA gyrase",
    "value.measured": "n/a (n/a = not active)"
  },
  {
    "compound": "O=C(NCCCN1CCN(c2nccc3ccccc23)CC1)c1cccnc1 [Compound 2, hydrochloride]",
    "observable": "% inhibition DNA gyrase",
    "value.measured": "n/a (n/a = not active)"
  },
  {
    "compound": "O=c1cc(NC[C@@H](O)[C@@H](O)C2CCN(c3nccc4ccc(F)cc34)CC2)c2ccccc2o1 (racemic) [Compound 129, hydrochloride]",
    "observable": "% inhibition DNA gyrase",
    "value.measured": "n/a (n/a = not active)"
  },
  {
    "compound": "O=C(O)C1CN(c2nccc3ccccc23)CCN1CCCNc1cc(=O)oc2ccccc12 (centres unmarked) [Compound 82, hydrochloride]",
    "observable": "% inhibition DNA gyrase",
    "value.measured": "82%"
  }
]
